Assay: Pharmacokinetic study of Example 3 in mouse (IV, IP)
Format: in vivo, C57 Mouse
Settings: C57, mouse, plasma, intraperitoneal, 30 mg/kg, 30 mg/kg IP; 2.00 h; mean; read-out: Plasma concentrations
observed property: concentration at 2 h (ng/mL)
I only need the number, in ng/mL, no unit after it.

// query concentration at 2 h value for entry Cc1ccc(Nc2nc(N/N=C/c3c[nH]c4ccccc34)cc(N3CCOCC3)n2)cc1 [Example 3]
3210

----------
Assay: Pharmacokinetic study of Example 1 in mouse (IV, IP, PO)
Type: in vivo, Male C57BL/6 Mouse
Conditions: male, C57BL/6, mouse, plasma, po, 30 mg/kg, PO 30 mg/kg; 0.250 h; individual mice M7-M9
observed property: concentration at 0.25 h (ng/mL)
Value expressed in ng/mL; do not type the unit.

Would you kindly share the measured concentration at 0.25 h for Cc1ccc(Nc2nc(N/N=C/c3c[nH]c4ccccc34)nc(N3CCOCC3)n2)cc1 ?
52.7

----------
Assay: Pharmacokinetic study of Example 1 in mouse (IV, IP, PO)
Assay type: in vivo, Male C57BL/6 Mouse
Details: male, C57BL/6, mouse, plasma; PO 30 mg/kg; calculated using AUC0-inf or AUC0-last with nominal dose
observed property: bioavailability (%)
State the answer as a number, implicitly in %.

// query bioavailability value for entry Cc1ccc(Nc2nc(N/N=C/c3c[nH]c4ccccc34)nc(N3CCOCC3)n2)cc1
2.22

----------
Assay: Pharmacokinetic study of Example 1 in mouse (IV, IP, PO)
Format: in vivo, Male C57BL/6 Mouse
Conditions: male, C57BL/6, mouse, plasma, ip, 30 mg/kg, IP 30 mg/kg; mean; read-out: MRT0-last
observed property: MRT last (h)
Field: numeric (h). Do not append units.

Need MRT last, item Cc1ccc(Nc2nc(N/N=C/c3c[nH]c4ccccc34)nc(N3CCOCC3)n2)cc1
6.91

----------
Tested on: U251
Test: U251 Vacuolization Assay (24h)
Type: cell-based
Details: Homo sapiens, U-251
observed property: EC50

Name the reported EC50 value associated with the molecule Clc1ccccc1Nc1nc(N/N=C/c2c[nH]c3ccccc23)nc(N2CCOCC2)n1 [Example 42]
≤ 1000 nM

Would you mind telling me what EC50 value was observed for Cc1ccc(Nc2nc(N/N=C/c3c[nH]c4ccccc34)nc(N3CCc4ccccc4C3)n2)cc1 [Example 47] ?
≤ 1000 nM

Looking for the measured EC50 of N#Cc1ccc(Nc2nc(N/N=C/c3c[nH]c4ccccc34)nc(N3CCOCC3)n2)cc1 [Example 22] , can you help?
≤ 1000 nM

Recorded EC50 for Cc1ccc(Nc2nc(NCc3c[nH]c4ccccc34)nc(N3CCOCC3)n2)cc1 [Example 8] , please?
1000 to 10000 nM

So what does the record say about EC50 for Cc1ccc(Nc2nc(N/N=C/c3c[nH]c4ccccc34)nc(N(C)C)n2)cc1 [Example 30] ?
> 50000 nM

Look at this molecule and give its reported EC50. COC1CCN(c2nc(N/N=C/c3c[nH]c4ccccc34)nc(Nc3ccc(C)cc3)n2)CC1 [Example 49]
> 50000 nM

Which EC50 reading was recorded for the molecule C(=N\Nc1nc(Nc2cccc3ccccc23)nc(N2CCOCC2)n1)/c1c[nH]c2ccccc12 [Example 55] ?
≤ 1000 nM
